Measured growth by item
- Test system: NCI-H522 lung
- assayName: NCI-60 one-dose screen, 48 h (100 = growth as untreated, 0 = no growth, -100 = all killed)
- assaySetup: 10 µM unless noted
About 83,000 compounds went through this panel and 20% of them were active in at least one assay; those are over-represented in the sample as a whole.

molecule: O=C(CC1(O)C(=O)Nc2ccc(Cl)cc21)c1ccc(C(=O)NCC2CCC3(CC2)OOC2(CCCCC2)OO3)cc1 (centres undefined)
systemUnderTest: NCI-H522 lung
readingUnit: %
growth: -1.69
//
molecule: C/C(=C\c1ccn(-c2ccc(N)cc2)n1)[C@@H]1C[C@@H]2O[C@]2(C)CCC[C@H](C)[C@H](O)[C@@H](C)C(=O)C(C)(C)[C@@H](O)CC(=O)O1
systemUnderTest: NCI-H522 lung
readingUnit: %
growth: 18.6
//
molecule: O=P1(NCCCl)OCCCN1CCCl (centres undefined)
systemUnderTest: NCI-H522 lung
readingUnit: %
growth: 99.5
//
molecule: CCCCN(CCCC)P(=O)(Oc1ccccc1)Oc1ccccc1
systemUnderTest: NCI-H522 lung
readingUnit: %
growth: 37.9
//
molecule: C[C@@H]1O[C@@H](O[C@H]2C[C@@H](O)[C@]3(CO)C4C(CC[C@]3(O)C2)[C@@]2(O)CC[C@H](C3=CC(=O)OC3)[C@@]2(C)C[C@H]4O)[C@H](O)[C@H](O)[C@H]1O (some centres undefined)
systemUnderTest: NCI-H522 lung
readingUnit: %
growth: -54.4
//
molecule: Nc1ccc(-c2nc3cc(F)ccc3[se]2)cc1F
systemUnderTest: NCI-H522 lung
readingUnit: %
growth: 64.2
//
molecule: Cc1cc(N(CCCl)CCCl)ccc1C=Nc1ccccc1-c1ccccc1
systemUnderTest: NCI-H522 lung
readingUnit: %
growth: 99.5
//
molecule: Cc1ccc(S(=O)(=O)C(Cl)(Cl)Cl)cc1
systemUnderTest: NCI-H522 lung
readingUnit: %
growth: 76.2
//
molecule: COC(=O)[C@H](Cc1ccccc1)NC(=O)c1csc([C@@H](C[C@H](C(C)C)N(C)C(=O)[C@@H](NC(=O)[C@H]2CCCCN2C)C2CC2)OC(C)=O)n1
systemUnderTest: NCI-H522 lung
readingUnit: %
growth: -28.7
//
molecule: CC(=O)OC1CCC2C3CCC4=C/C(=N/OC(=O)c5ccc(N(CCCl)CCCl)cc5)CCC4(C)C3CC(C)C12 (centres undefined)
systemUnderTest: NCI-H522 lung
readingUnit: %
growth: 79.2
//
molecule: CC(=O)O[C@H]1CC[C@@]2(C)C(=CC[C@H]3[C@@H]4C[C@@H](N5CC5)[C@H](C(C)=O)[C@@]4(C)CC[C@@H]32)C1
systemUnderTest: NCI-H522 lung
readingUnit: %
growth: 88.7
//
molecule: Nc1c(F)cc(-c2nc3cc(F)ccc3[se]2)cc1F
systemUnderTest: NCI-H522 lung
readingUnit: %
growth: 84.8
//
molecule: NC1CC2CCCCC2CC1(O)c1ccccc1 (centres undefined)
systemUnderTest: NCI-H522 lung
readingUnit: %
growth: 97.8
//
molecule: C[C@]12CCc3sc(NCCc4ccccc4)nc3C1=CC[C@@H]1[C@@H]2CC[C@]2(C)C(=O)CC[C@@H]12
systemUnderTest: NCI-H522 lung
readingUnit: %
growth: 44.1
//
molecule: CCCOC(=O)N[C@H]1CCc2c(Br)c(OC)c(OC)c(OC)c2-c2ccc(SC)c(=O)cc21
systemUnderTest: NCI-H522 lung
readingUnit: %
growth: 8.5
//
molecule: CN1CC(=O)N(O)C1(C)c1cccnc1 (centres undefined)
systemUnderTest: NCI-H522 lung
readingUnit: %
growth: 95.2
//
molecule: CC[C@H](C)[C@H](NC(=O)[C@H]1CCCCN1C)C(=O)N(C)[C@H](C[C@@H](OC(C)=O)c1nc(C(=O)N[C@@H](Cc2ccccc2)C[C@H](C)C(=O)OC)cs1)C(C)C
systemUnderTest: NCI-H522 lung
readingUnit: %
growth: -19.8
//
molecule: Clc1cc(N2CC2)nc(N2CC2)n1
systemUnderTest: NCI-H522 lung
readingUnit: %
growth: 67.2
//
molecule: COC(=O)[C@@H](C)C[C@H](Cc1ccc2ccccc2c1)NC(=O)c1csc([C@@H](C[C@H](C(C)C)N(C)C(=O)[C@@H](NC(=O)[C@H]2CCCCN2C)C(C)C)OC(C)=O)n1
systemUnderTest: NCI-H522 lung
readingUnit: %
growth: 22.2
